test: Cmax in human at 25 mg/kg, po administered as multiple dose on day 8; assay type: ADME, organism-based; set-up: dose 25 mg/kg, route po; conditions: in vivo
attributeMeasured: Cmax
For clarity, give the value followed by its unit.

Documented Cmax of Cc1ccc([C@@H]2C[C@H](CN[C@H](C)c3cccc4ccccc34)Oc3ccccc32)cc1C(=O)O.Cl : 463 ng/mL

====

experiment: Oral bioavailability in cynomolgus monkey at 5 mg/kg measured upto 24 hrs by LC/MS-MS analysis; type: ADME, organism-based, Macaca fascicularis; conditions: in vivo
attributeMeasured: bioavailability (%)
Lab book: enter the figure in %, no units written.

Documented bioavailability of Cc1ccc([C@@H]2C[C@H](CN[C@H](C)c3cccc4ccccc34)Oc3ccccc32)cc1C(=O)O.Cl : 100
